# Test system: Proteus mirabilis
# method_description: Antibacterial activity against Proteus mirabilis assessed as zone of inhibition at 5 to 40 ug/ml after 18 to 24 hr by disc diffusion method relative to gatifloxacin
# Assay type: functional
Provide the recorded inhibition zone (IZ) for the entries that follow.
Kindly write the number and append the unit.

Q. Record lookup: for Proteus mirabilis, what inhibition zone (IZ) belongs to CO/N=C1\CN(c2nc3c(cc2F)c(=O)c(C(=O)O)cn3C2CC2)CC1CN.CS(=O)(=O)O (stereo not drawn) [GEMIFLOXACIN MESYLATE] ?
A. 82.5%

Q. Give Proteus mirabilis inhibition zone (IZ) for COc1c(N2CCN(C(C)=O)C(C)C2)c(F)cc2c(=O)c(C(=O)O)cn(C3CC3)c12.O (stereo not drawn)
A. 76.6%

Q. Short answer please: inhibition zone (IZ), Proteus mirabilis, entry "C[C@@H]1CN(c2c(F)c(N)c3c(=O)c(C(=O)O)cn(C4CC4)c3c2F)C[C@H](C)N1"
A. 90%
